Molecular target: BCRP (Homo sapiens (Human))
Sequence (Q9UNQ0 whole entry): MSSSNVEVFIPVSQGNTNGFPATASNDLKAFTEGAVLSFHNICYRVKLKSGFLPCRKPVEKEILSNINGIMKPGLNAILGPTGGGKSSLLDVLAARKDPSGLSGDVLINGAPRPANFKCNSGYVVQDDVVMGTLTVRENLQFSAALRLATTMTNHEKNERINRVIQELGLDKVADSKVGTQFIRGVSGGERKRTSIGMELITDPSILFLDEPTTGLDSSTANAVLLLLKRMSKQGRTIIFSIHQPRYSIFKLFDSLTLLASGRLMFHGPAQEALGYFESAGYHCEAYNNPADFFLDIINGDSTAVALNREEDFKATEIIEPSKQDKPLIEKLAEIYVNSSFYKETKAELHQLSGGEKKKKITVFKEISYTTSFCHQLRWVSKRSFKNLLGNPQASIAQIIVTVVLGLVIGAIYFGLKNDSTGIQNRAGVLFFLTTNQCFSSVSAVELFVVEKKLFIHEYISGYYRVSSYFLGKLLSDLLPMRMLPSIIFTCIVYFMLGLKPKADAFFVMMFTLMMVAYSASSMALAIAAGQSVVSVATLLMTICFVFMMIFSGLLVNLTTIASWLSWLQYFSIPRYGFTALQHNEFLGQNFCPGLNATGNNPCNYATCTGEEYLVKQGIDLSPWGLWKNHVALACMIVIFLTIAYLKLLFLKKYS
Experiment: BCRP MDCKII efflux assay (Assay 7)
Format: in vitro ADME
Conditions: dog; efflux ratio Papp(B-A)/Papp(A-B), BCRP MDCKII cells; read-out: Assay 7 Pe Ratio
readoutType: efflux ratio at 2 h, 1 µM

// worked examples, efflux ratio at 2 h, 1 µM included
C=CC(=O)N1CC[C@@H]2C[C@H]1CN2c1ccc2ncnc(Nc3ccc(Oc4ccn5ncnc5c4)c(C)c3F)c2n1 [Example 65] = 4
C=CC(=O)N1CC2CC(C1)N2c1ccc2ncnc(Nc3ccc(Oc4cnc5c(c4)ncn5C)c(C)c3F)c2n1 [Example 435] = 2
C=CC(=O)N1C[C@H]2CC[C@@H]1C[C@H]2c1ccc2ncnc(Nc3ccc(Oc4ccn5ncnc5c4)c(C)c3F)c2n1 (racemic) [Example 218] = 2.6
C=CC(=O)N1CCC(c2ccc3ncnc(Nc4ccc(Oc5ccc6c(c5)ncn6C)c(C)c4F)c3n2)CC1 [Example 146] = 4.3
C=CC(=O)N1C[C@H]2CC[C@@H](C1)[C@@H]2c1ccc2ncnc(Nc3cc(C)c(Oc4ccn5ncnc5c4)cc3F)c2n1 [Example 222] = 1.4

(A) C=CC(=O)N1C[C@H](c2ccc3ncnc(Nc4cc(C)c(Oc5ccc6c(c5)ncn6C)cc4F)c3n2)CCC1(C)C (racemic) [Example 141]
(B) C=CC(=O)N1C[C@H](c2ccc3ncnc(Nc4ccc(Oc5ccn6ncnc6c5)c(C)c4F)c3n2)C[C@H]1COC (mixture of isomers) [Example 306]
Inquiry: Which item exceeds the other in efflux ratio at 2 h, 1 µM, A or B ? Refer to your chosen item by its label in the answer.
Reply text: B

(P) C=CC(=O)N1C[C@@H]2C[C@H]1CN(c1ccc3ncnc(Nc4ccc(Oc5ccc6c(c5)ncn6C)c(C)c4F)c3n1)C2 [Example 109]
(Q) C=CC(=O)N1C[C@H]2C[C@@H]1CN(c1ccc3ncnc(Nc4cc(C)c(Oc5cnc6c(c5)ncn6C)cc4F)c3n1)C2 [Example 353]
Inquiry: Which item exceeds the other in efflux ratio at 2 h, 1 µM, P or Q ? Refer to your chosen item by its label in the answer.
Reply text: Q
(Q: 17.2, P: 2)
